Biological target: Transient receptor potential cation channel subfamily V member 1 (Rattus norvegicus)
Assay: Displacement of [3H]resiniferatoxin from TRPV1 receptor in Wistar rat spinal cord at 10 uM relative to control
Exercise: for every item that follows, state its recorded inhibition.
Numbers only, in %.

// worked examples, inhibition included
| mol_smiles | reported_result |
| --- | --- |
| CCCCCCCC/C=C\CCCCCCCC(=O)N[C@@H](CO)C(C)C | 3 |
| CCCCCCCCCCCCCCCCCC(=O)N[C@H](CO)C(C)C | -9 |
| CCCCCCCC/C=C/CCCCCCCC(=O)N[C@H](CO)C(C)C | 6 |

I'm curious: which inhibition was measured for "CCCCCCCC/C=C\CCCCCCCC(=O)N[C@H](CO)C(C)C" tested on Transient receptor potential cation channel subfamily V member 1 (Rattus norvegicus)?
1

###

Target: Cannabinoid receptor 1 (Homo sapiens) (UniProt P21554)
Sequence (P21554 whole entry): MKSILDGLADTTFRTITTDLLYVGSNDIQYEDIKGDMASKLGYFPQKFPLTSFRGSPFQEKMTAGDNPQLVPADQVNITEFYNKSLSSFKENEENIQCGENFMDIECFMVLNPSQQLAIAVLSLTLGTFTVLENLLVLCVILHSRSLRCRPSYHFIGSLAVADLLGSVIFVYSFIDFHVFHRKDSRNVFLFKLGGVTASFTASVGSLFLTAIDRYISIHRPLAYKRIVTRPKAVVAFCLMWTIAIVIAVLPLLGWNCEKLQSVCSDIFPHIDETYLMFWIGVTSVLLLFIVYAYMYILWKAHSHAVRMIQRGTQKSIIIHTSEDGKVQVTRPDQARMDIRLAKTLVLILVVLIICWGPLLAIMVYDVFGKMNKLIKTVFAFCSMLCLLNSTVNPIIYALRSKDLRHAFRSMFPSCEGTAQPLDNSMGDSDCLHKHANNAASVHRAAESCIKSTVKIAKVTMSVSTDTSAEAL
Experiment: Displacement of [3H]SR141716A from human CB1 receptor expressed in rat Chem-1 cell membrane at 10 uM relative to control
Assay type: cell membranes
So I've got a bunch of compounds here, and I need their inhibition values.
Be sure to follow the number with its unit.

// worked examples, inhibition included
| mol_smiles | inhibition |
| --- | --- |
| CCCCCCCCCCCCCCCC(=O)N[C@H](CO)C(C)C | 21% |
| CCCCCCCC/C=C\CCCCCCCC(=O)N[C@@H](CO)C(C)C | 36% |
| CCCCCCCC/C=C/CCCCCCCC(=O)N[C@H](CO)C(C)C | 8% |
| CCCCCCCC/C=C\CCCCCCCC(=O)N[C@H](CO)C(C)C | 35% |
| CCCCCCCCCCCCCCCCCC(=O)N[C@H](CO)C(C)C | 6% |

# input for lookup
What does the data say about its inhibition? Entry: "CCCCCCCC/C=C/CCCCCCCC(=O)N[C@@H](CO)C(C)C"
7%

###

Tested on: Mus musculus
Test: Antiobesity activity in Sabra mouse assessed as reduction in body weight at 1 mg/kg, ip administered on day 0, 10, 11, 12, 24, 29 measured on day 33 relative to control
Format: functional
Set-up: scale not given: the % may be the effect or the level left
Conditions: route intraperitoneal
measurement_label: Activity

Worked examples, 3 molecules total:
| molecule | Activity |
| --- | --- |
| CCCCCCCC/C=C\CCCCCCCC(=O)NCCO [OLEOYLETHANOLAMIDE] | -0.15% |
| CCCCCCCC/C=C\CCCCCCCC(=O)N(C)CCO | -0.3% |
| CCCCCCCC/C=C\CCCCCCCC(=O)N[C@@H](C)CO | -1.63% |

Kindly consider the entry below.
What value of Activity has been reported for the following molecule? "CCCCCCCC/C=C\CCCCCCCC(=O)N[C@H](CO)C(C)C"
-4%

###

Tested on: Mus musculus
Assay: Antiobesity activity in Sabra mouse assessed as reduction in body weight at 1 mg/kg, ip administered on day 0, 10, 11, 12, 24, 29 measured on day 12 relative to control
Assay type: functional
Set-up: scale not given: the % may be the effect or the level left
Settings: route intraperitoneal
Kindly supply the reported Activity values for the records listed here.
The answer consists of two parts: a number and, after it, its unit.

| compound | Activity |
| --- | --- |
| CCCCCCCC/C=C\CCCCCCCC(=O)N[C@H](CO)C(C)C | -1.79% |

# map each compound to its Activity
1. CCCCCCCC/C=C\CCCCCCCC(=O)NCCO [OLEOYLETHANOLAMIDE]
2. CCCCCCCC/C=C\CCCCCCCC(=O)N[C@@H](C)CO
3. CCCCCCCC/C=C\CCCCCCCC(=O)N(C)CCO

-0.23%
-1.8%
-0.61%

###

Molecular target: Transient receptor potential cation channel subfamily V member 1 (Homo sapiens, UniProt Q8NER1)
Sequence (Q8NER1 whole entry): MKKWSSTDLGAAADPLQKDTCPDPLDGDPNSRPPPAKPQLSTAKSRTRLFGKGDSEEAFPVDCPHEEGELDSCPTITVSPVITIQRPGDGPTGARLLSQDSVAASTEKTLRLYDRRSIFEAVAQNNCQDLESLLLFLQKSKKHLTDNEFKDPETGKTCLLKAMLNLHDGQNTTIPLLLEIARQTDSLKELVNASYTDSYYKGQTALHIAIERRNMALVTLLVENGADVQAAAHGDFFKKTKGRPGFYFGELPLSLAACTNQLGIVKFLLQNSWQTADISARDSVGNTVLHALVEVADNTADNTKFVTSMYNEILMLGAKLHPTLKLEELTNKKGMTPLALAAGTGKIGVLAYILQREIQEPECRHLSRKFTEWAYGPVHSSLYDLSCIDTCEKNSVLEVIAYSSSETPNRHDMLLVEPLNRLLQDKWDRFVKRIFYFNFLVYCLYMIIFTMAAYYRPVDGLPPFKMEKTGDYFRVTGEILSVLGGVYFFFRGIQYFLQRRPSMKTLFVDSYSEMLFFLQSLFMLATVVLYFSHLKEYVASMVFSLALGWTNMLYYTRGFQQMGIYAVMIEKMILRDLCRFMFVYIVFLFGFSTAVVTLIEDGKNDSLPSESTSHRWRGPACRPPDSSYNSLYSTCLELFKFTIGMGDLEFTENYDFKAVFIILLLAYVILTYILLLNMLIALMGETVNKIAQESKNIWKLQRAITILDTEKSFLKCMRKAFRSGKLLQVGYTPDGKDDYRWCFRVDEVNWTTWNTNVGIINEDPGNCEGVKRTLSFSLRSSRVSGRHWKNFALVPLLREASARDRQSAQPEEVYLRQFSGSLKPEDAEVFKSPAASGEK
Assay: Agonist activity at TRPV1 receptor (unknown origin)
measurement_label: EC50 (nM)
Answers are plain numbers, in nM.

For orientation, consider the following solved cases.
| compound | measurement_label | reported_result |
| --- | --- | --- |
| CCCCCCCC/C=C\CCCCCCCC(=O)NCCO [OLEOYLETHANOLAMIDE] | EC50 | 40 |
| CCCCC/C=C\C/C=C\C/C=C\C/C=C\CCCC(=O)NCCO [ANANDAMIDE] | EC50 | 15.8 |

Okay, next one:
Which EC50 reading was recorded for the compound CCCCC/C=C\C/C=C\CCCCCCCC(=O)NCCO [LINOLEOYLETHANOLAMIDE] ?
630

###

Hi there, I'd appreciate the recorded Activity for every entry that follows.
System: Mus musculus
Experiment: Antiobesity activity in Sabra mouse assessed as change in body weight at 1 mg/kg, ip administered on day 8, 9, 10, 11, 14, 18, 24 and 32 measured on day 14 relative to control
Format: functional
Settings: route intraperitoneal
Answers are plain numbers, in %.

Example entries and their recorded answers appear below.
| mol_smiles | Activity, % |
| --- | --- |
| CCCCCCCC/C=C\CCCCCCCC(=O)N[C@H](CO)C(C)C | -1.8 |
| CCCCCCCCCCCCCCCCCC(=O)N[C@H](CO)C(C)C | -1.4 |
| CCCCCCCCCCCCCCCC(=O)N[C@H](CO)C(C)C | -2.2 |
| CCCCCCCC/C=C\CCCCCCCC(=O)N[C@@H](CO)C(C)C | -3.1 |
| CCCCCCCC/C=C/CCCCCCCC(=O)N[C@@H](CO)C(C)C | -0.3 |

// next item, Activity requested
Requested read-out: Activity. Entry: "CCCCCCCC/C=C/CCCCCCCC(=O)N[C@H](CO)C(C)C"
1

###

Test system: Mus musculus
Test: Increase in motor activity Sabra mouse at 1 mg/kg, ip administered on day 8, 9, 10, 11, 14, 18, 24 and 32 measured on day 14 by open field test
Type: functional, organism-based
Parameters: dose 1 mg/kg
Active and inactive are the calls of the source. The rule behind the calls is not given here.
measurement_label: Activity

| mol_smiles | Activity |
| --- | --- |
| CCCCCCCC/C=C\CCCCCCCC(=O)N[C@H](CO)C(C)C | Active |
| CCCCCCCC/C=C\CCCCCCCC(=O)N[C@@H](CO)C(C)C | Active |
| CCCCCCCCCCCCCCCCCC(=O)N[C@H](CO)C(C)C | inactive |
| CCCCCCCCCCCCCCCC(=O)N[C@H](CO)C(C)C | inactive |

Turning now to a further record.
For "CCCCCCCC/C=C/CCCCCCCC(=O)N[C@@H](CO)C(C)C" , what is its reported Activity?
inactive

###

System: Mus musculus
Experiment: Antiobesity activity in Sabra mouse assessed as change in food consumption at 1 mg/kg, ip administered on day 8, 9, 10, 11, 14, 18, 24 and 32 measured after 4 weeks relative to control
Format: functional
Conditions: route intraperitoneal
Sorting guide: entries reporting Activity beneath 90% go in the true pile, the rest go in the false pile.

Consider the following illustrative entries.
| mol_smiles | answer_label |
| --- | --- |
| CCCCCCCCCCCCCCCCCC(=O)N[C@H](CO)C(C)C | true |
| CCCCCCCC/C=C/CCCCCCCC(=O)N[C@@H](CO)C(C)C | false |
| CCCCCCCC/C=C\CCCCCCCC(=O)N[C@@H](CO)C(C)C | true |
| CCCCCCCCCCCCCCCC(=O)N[C@H](CO)C(C)C | true |

# ---- query compound ----
Does the reported Activity of "CCCCCCCC/C=C/CCCCCCCC(=O)N[C@H](CO)C(C)C" stay below 90%?
false

###

Test system: Mus musculus
Experiment: Antiobesity activity in Sabra mouse assessed as change in body weight at 1 mg/kg, ip administered on day 8, 9, 10, 11, 14, 18, 24 and 32 measured on day 9 relative to control
Assay type: functional
Details: route intraperitoneal
measurement_label: Activity (%)
Numbers only, in %.

For orientation, consider the following solved cases.
| mol_smiles | tested_system | reading_unit | Activity |
| --- | --- | --- | --- |
| CCCCCCCC/C=C\CCCCCCCC(=O)N[C@@H](CO)C(C)C | Mus musculus | % | -0.8 |
| CCCCCCCC/C=C\CCCCCCCC(=O)N[C@H](CO)C(C)C | Mus musculus | % | -2.2 |
| CCCCCCCC/C=C/CCCCCCCC(=O)N[C@@H](CO)C(C)C | Mus musculus | % | -1.7 |
| CCCCCCCCCCCCCCCC(=O)N[C@H](CO)C(C)C | Mus musculus | % | -2.1 |

Go through the list and state Activity for each entry.
1. CCCCCCCCCCCCCCCCCC(=O)N[C@H](CO)C(C)C
2. CCCCCCCC/C=C/CCCCCCCC(=O)N[C@H](CO)C(C)C

1. 0.9
2. -0.1

###

Molecular target: Fatty-acid amide hydrolase 1 (Rattus norvegicus)
Experiment: Inhibition of rat brain FAAH using [3H]anandamide as substrate at 10 uM preincubated for 15 mins before substrate addition relative to control
For each record, write down the corresponding inhibition.

Solved entries (count: 4):
| mol_smiles | inhibition |
| --- | --- |
| CCCCCCCC/C=C\CCCCCCCC(=O)N[C@@H](CO)C(C)C | 8% |
| CCCCCCCC/C=C/CCCCCCCC(=O)N[C@@H](CO)C(C)C | 13% |
| CCCCCCCC/C=C\CCCCCCCC(=O)N[C@H](CO)C(C)C | 14% |
| CCCCCCCCCCCCCCCCCC(=O)N[C@H](CO)C(C)C | 0% |

Which inhibition is reported with Fatty-acid amide hydrolase 1 (Rattus norvegicus) for this entry: "CCCCCCCC/C=C/CCCCCCCC(=O)N[C@H](CO)C(C)C" ?
7%
